- test_details: Evaluation of conversion rate to active form in buffer solution (Experimental Example 1)
- Assay type: physicochemical
- test_settings: pH6.5, 3 hr, 37° C., 25 umol/L in buffer solution
test_readout: Production rate of Alvocidib

compound	observed_measurement
CN1CC[C@H](c2c(OC(=O)N(CCF)CC3CCCCN3)cc(O)c3c(=O)cc(-c4ccccc4Cl)oc23)[C@H](O)C1 (stereo partly drawn)	62.7%
CCCN(C[C@H]1CCCCN1)C(=O)Oc1cc(O)c2c(=O)cc(-c3ccccc3Cl)oc2c1[C@H]1CCN(C)C[C@H]1O	42.8%
CN1CC[C@H](c2c(OC(=O)N(CCCC(F)(F)F)CC3CCCCN3)cc(O)c3c(=O)cc(-c4ccccc4Cl)oc23)[C@H](O)C1 (stereo partly drawn)	72.6%
